The reported numbers originate from patent US7118895B2.

Test system: Crude diglycosidase
EXPERIMENT_DESCRIPTION: Examination of temperature in the conversion into isoflavone aglycons by diglycosidase using soybean materials
Assay type: biochemical, Penicillium multicolor IAM7153
Parameters: concentration or dose not given beside the values
EXPERIMENTAL_CONDITIONS: 55 °C; heat treatment of enzyme: no; 6 h
Experimental: Into 400 μL of 20 mM acetate buffer of pH 4.0 was suspended 50 mg of each of various soybean materials (roasted soy flour (manufactured by Fuji Shokuryo K.K.), soymilk (manufactured by Gitoh Shokuhin K.K.), defatted soybean (manufactured by Fuji Seiyu K.K.), concentrated soybean protein (manufactured by Fuji Seiyu K.K.)), whereby a substrate solution was prepared. Crude diglycosidase was diluted with 20 mM acetate buffer of pH 4.0 to be the glycosidase activity of 1.88 AU/mL. […]
MEASURED_PROPERTY: Decomposition efficiency of glycitin family in roasted soy flour (%)

I = COc1cc2c(=O)c(-c3ccc(O)cc3)coc2cc1O
II = COc1cc2c(=O)c(-c3ccc(O)cc3)coc2cc1O[C@@H]1O[C@H](COC(C)=O)[C@@H](O)[C@H](O)[C@H]1O
Would you let me know which has the greater Decomposition efficiency of glycitin family in roasted soy flour value, I or II ? Write the label of whichever entry you select.
I
